What self-cleavage was measured for each of the following?
B1: HDV Ribozyme (parent)
chain: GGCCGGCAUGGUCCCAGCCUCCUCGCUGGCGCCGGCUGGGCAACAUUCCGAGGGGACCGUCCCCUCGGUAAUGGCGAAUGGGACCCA

# Variants of: B1
# test description: self-cleavage, relative activity (ratio to wild type); higher = more cleavage; co-transcriptional

Ask | Returns the measured self-cleavage for the input variant. Input: G50A G81C
Reply | 0.225

Ask | Returns the measured self-cleavage for the input variant. Input: A71G G73C
Reply | 0.6

Ask | Returns the measured self-cleavage for the input variant. Input: C24G G31C
Reply | 0.0563

Ask | Returns the measured self-cleavage for the input variant. Input: U12A U72A
Reply | 0.0831

Ask | Returns the measured self-cleavage for the input variant. Input: C26U C64U
Reply | 0.819

Ask | Returns the measured self-cleavage for the input variant. Input: C15U U37G
Reply | 0.158

Ask | Returns the measured self-cleavage for the input variant. Input: G25A C36A
Reply | 0.0554

Ask | Returns the measured self-cleavage for the input variant. Input: U12A C75G
Reply | 0.277

Ask | Returns the measured self-cleavage for the input variant. Input: G5A U37A
Reply | 0

Ask | Returns the measured self-cleavage for the input variant. Input: G35A C62U
Reply | 0.665

Ask | Returns the measured self-cleavage for the input variant. Input: A42C U72C
Reply | 0.107

Ask | Returns the measured self-cleavage for the input variant. Input: G50A C61G
Reply | 0.91

Ask | Returns the measured self-cleavage for the input variant. Input: C33A G40U
Reply | 0.23

Ask | Returns the measured self-cleavage for the input variant. Input: C3A U12A
Reply | 0.0848

Ask | Returns the measured self-cleavage for the input variant. Input: G17U C26A
Reply | 0.491

Ask | Returns the measured self-cleavage for the input variant. Input: G25U A77U
Reply | 0.0923

Ask | Returns the measured self-cleavage for the input variant. Input: G35C A87U
Reply | 0.208

Ask | Returns the measured self-cleavage for the input variant. Input: G59A G76A
Reply | 1.07

Ask | Returns the measured self-cleavage for the input variant. Input: C21A G34C
Reply | 0

Ask | Returns the measured self-cleavage for the input variant. Input: G40A C49U
Reply | 0.95

Ask | Returns the measured self-cleavage for the input variant. Input: G1U G25C
Reply | 0.17

Ask | Returns the measured self-cleavage for the input variant. Input: C26G G39C
Reply | 0.18
